Assign Perturb-seq pooled growth sgRNA counts, T0 to each entry below.
Test system: K562 CRISPRi cells
Assay: Perturb-seq pooled growth measurement (sgRNA counts, growth phenotype γ, relative activity)
Type: cell-based, human
Settings: sequencing read counts; T0 = day two after transduction
Source text: Finally, we sought to use intermediate-activity sgRNAs to explore relationships between expression levels of various genes and the resulting cellular phenotypes. […] In addition to the single-cell transcriptomes, we measured bulk growth phenotypes conferred by sgRNAs in these cells. […]
Enter the number alone.

Look up Perturb-seq pooled growth sgRNA counts, T0: GATA1_−_48645022.23-P1P2_08: sgRNA targeting GATA1, GTGAGCTTTCCACATCCCCA, SEQ ID NO: 122 (listed as DNA, chemistry not fully specified)
7028

Now the same for GNB2L1_+_180670873.23-P1P2_02: sgRNA targeting GNB2L1, GTGCAAGACGGCGGCAGGAG, SEQ ID NO: 59 (listed as DNA, chemistry not fully specified)
3839

Now the same for HSPA5_+_128003624.23-P1P2_00: sgRNA targeting HSPA5, GAGCCGAGTAGGCGACGGTG, SEQ ID NO: 88 (listed as DNA, chemistry not fully specified)
5785

Now the same for HSPE1_+_198365089.23-P1P2_01: sgRNA targeting HSPE1, GGAGACACGCAGTCCGGCCC, SEQ ID NO: 65 (listed as DNA, chemistry not fully specified)
9669

Now the same for COX11_+_53045977.23-P1P2_05: sgRNA targeting COX11, GGCTCTGGCGTCTTGGATGG, SEQ ID NO: 144 (listed as DNA, chemistry not fully specified)
5205

Now the same for RPS15_−_1438413.23-P1P2_01: sgRNA targeting RPS15, GACCAAACCGATCTCTTCTG, SEQ ID NO: 64 (listed as DNA, chemistry not fully specified)
9713

Now the same for RPS14_+_149829238.23-P1P2_01: sgRNA targeting RPS14, GAGACCCGGGCGCGACAATC, SEQ ID NO: 46 (listed as DNA, chemistry not fully specified)
4954

Now the same for POLR1D_+_28196016.23-P1_03: sgRNA targeting POLR1D, GGTAAGCAAGGACCGACCGA, SEQ ID NO: 75 (listed as DNA, chemistry not fully specified)
10266

Now the same for DBR1_+_137893744.23-P1P2_07: sgRNA targeting DBR1, GTTTGCAGGGGTCTACACCC, SEQ ID NO: 80 (listed as DNA, chemistry not fully specified)
8500
